assay: Therapeutic index, ratio of MTD in human A2780 cells xenografted SCID mouse to ED50 for human A2780 cells xenografted in SCID mouse; assay type: cell-based; conditions: in vivo, read-out: TI
experimental_endpoint: selectivity ratio

1. CC(C)C(=O)N1N=C(NC(=O)C(C)(C)C)SC1(CCNS(C)(=O)=O)c1ccccc1 (single isomer, unassigned; (-)) :: 8

###

Each entry below carries its reported log10 of GI50.
assay: Growth inhibition of human HCT116 cells; format: functional; settings: HCT-116
experimental_endpoint: log10 of GI50 (log10 of the value in nM)

1. CC(C)C(=O)NC1=NN(C(=O)C(C)C)C(C)(c2ccccc2)S1 (stereo not drawn) :: 2.74
2. CC(=O)NC1=NN(C(C)=O)C(C)(c2ccccc2)S1 (stereo not drawn) :: 3.00
3. CC(C)(C)C(=O)NC1=NN(C(=O)C(C)(C)C)C(CCNS(C)(=O)=O)(c2ccccc2)S1 (stereo not drawn) :: 1.80
4. CC(C)C(=O)N1N=C(NC(=O)C(C)(C)C)SC1(CCNS(C)(=O)=O)c1ccccc1 (single isomer, unassigned; (-)) :: 1.80
5. COCC1(c2ccccc2)SC(NC(=O)C(C)(C)C)=NN1C(=O)C(C)(C)C (stereo not drawn) :: 2.75
6. CC(C)(C)C(=O)NC1=NN(C(=O)C(C)(C)C)C(CNS(C)(=O)=O)(c2ccccc2)S1 (stereo not drawn) :: 1.23
7. CCC(=O)N1N=C(NC(=O)C(C)(C)C)SC1(CCNS(C)(=O)=O)c1ccccc1 (single isomer, unassigned; (-)) :: 2.75
8. CC(C)CC(=O)NC1=NN(C(=O)CC(C)C)C(C)(c2ccccc2)S1 (stereo not drawn) :: 2.28

###

Molecular target: Kinesin-like protein KIF11 (Homo sapiens)
Sequence (P52732 whole entry): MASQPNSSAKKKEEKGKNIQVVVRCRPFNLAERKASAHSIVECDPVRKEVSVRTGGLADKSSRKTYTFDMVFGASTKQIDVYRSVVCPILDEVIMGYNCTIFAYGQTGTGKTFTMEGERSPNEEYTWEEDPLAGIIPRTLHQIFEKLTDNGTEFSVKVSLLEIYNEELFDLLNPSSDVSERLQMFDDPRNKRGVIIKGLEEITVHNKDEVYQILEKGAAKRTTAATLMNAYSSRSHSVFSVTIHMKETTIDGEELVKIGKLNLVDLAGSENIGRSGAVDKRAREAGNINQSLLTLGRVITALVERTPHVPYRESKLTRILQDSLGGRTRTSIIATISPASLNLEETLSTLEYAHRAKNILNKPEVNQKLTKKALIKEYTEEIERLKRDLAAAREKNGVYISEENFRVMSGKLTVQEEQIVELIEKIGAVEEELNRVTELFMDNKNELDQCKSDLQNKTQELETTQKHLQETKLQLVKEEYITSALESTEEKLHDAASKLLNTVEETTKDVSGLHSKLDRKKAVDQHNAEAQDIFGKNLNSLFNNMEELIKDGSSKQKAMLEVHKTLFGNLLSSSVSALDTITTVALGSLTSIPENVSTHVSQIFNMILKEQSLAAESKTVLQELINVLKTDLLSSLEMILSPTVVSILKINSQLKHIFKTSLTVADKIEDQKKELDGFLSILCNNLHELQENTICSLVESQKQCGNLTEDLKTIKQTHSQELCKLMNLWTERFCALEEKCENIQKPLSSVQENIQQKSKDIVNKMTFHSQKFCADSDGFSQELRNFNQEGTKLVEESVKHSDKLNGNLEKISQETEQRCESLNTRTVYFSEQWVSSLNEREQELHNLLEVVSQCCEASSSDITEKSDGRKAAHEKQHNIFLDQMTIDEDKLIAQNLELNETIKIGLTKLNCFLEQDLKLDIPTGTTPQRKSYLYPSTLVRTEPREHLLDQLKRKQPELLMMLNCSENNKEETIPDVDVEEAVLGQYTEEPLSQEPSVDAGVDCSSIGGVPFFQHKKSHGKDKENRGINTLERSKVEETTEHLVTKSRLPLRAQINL
pIC50: −log10 of the molar value.
experimental_endpoint: pIC50

1) CC(C)CC(=O)NC1=NN(C(=O)CC(C)C)C(C)(c2ccccc2)S1 (configuration not stated) :: 6.28
2) CCC(=O)N1N=C(NC(=O)C(C)(C)C)SC1(CCNS(C)(=O)=O)c1ccccc1 (racemic) :: 6.95
3) CC(C)(C)C(=O)NC1=NN(C(=O)C(C)(C)C)C(CCNS(C)(=O)=O)(c2ccccc2)S1 (configuration not stated) :: 6.92
4) CC(C)(C)C(=O)NC1=NN(C(=O)C(C)(C)C)C(CNS(C)(=O)=O)(c2ccccc2)S1 (configuration not stated) :: 7.36
5) CC(C)C(=O)N1N=C(NC(=O)C(C)(C)C)SC1(CCNS(C)(=O)=O)c1ccccc1 (single isomer, unassigned; (-)) :: 7.32
6) CC(C)C(=O)N1N=C(NC(=O)C(C)(C)C)SC1(CCNS(C)(=O)=O)c1ccccc1 (racemic) :: 6.96
7) CCC(=O)N1N=C(NC(=O)C(C)(C)C)SC1(CCNS(C)(=O)=O)c1ccccc1 (single isomer, unassigned; (-)) :: 7.19
